# Species on record: Rattus norvegicus
# Assay comment: Open TG-GATES - Regimen: Daily Repeat
# Format: toxicity, organism-based, Sprague-Dawley
# Design: regimen Daily Repeat, gender Male, age 6 weeks
# Condition details: in vivo, po, 10 mg/kg, 72 h, tissue Blood, route gavage, dose level Low, time 3 day
Metric: RBC
Numeric answer plus unit only.

Use these answered entries as a reference point.
Compound | Assay value
CC(C)OC(=O)C(C)(C)Oc1ccc(C(=O)c2ccc(Cl)cc2)cc1 [FENOFIBRATE] | 620.2 x10_4/ul
CN(C)CCCN1c2ccccc2CCc2ccccc21 [IMIPRAMINE] | 633 x10_4/ul
CC1=C(/C=C/C(C)=C/C=C/C(C)=C/CO)C(C)(C)CCC1 [RETINOL] | 636 x10_4/ul

Query string: State the recorded RBC for this entry: `CN(C)CCN(Cc1cccs1)c1ccccn1`
Result string: 603.4 x10_4/ul

These data points were gathered from ChEMBL document CHEMBL3885861.
